B1: TPR t1 (parent)
chain: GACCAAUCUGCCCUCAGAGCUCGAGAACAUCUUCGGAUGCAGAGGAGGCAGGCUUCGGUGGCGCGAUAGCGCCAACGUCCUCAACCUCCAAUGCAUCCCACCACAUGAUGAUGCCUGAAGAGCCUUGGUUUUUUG

# Variants of: B1
# protocol_summary: polymerase ribozyme fitness, log enrichment relative to wild type (log ratio); higher = more active; in vitro selection for triplet polymerase activity
Exercise: state measured polymerase ribozyme fitness (log ratio) for each of the variants provided.
Answers are plain numbers.

// for each variant below, give its polymerase ribozyme fitness (log ratio)
1. G44C G71U A108U G110C U125A
2. C88U A119G
3. U7G C22G A24G G48U
4. C11G G44C A66G A83G C114A U133A
5. C28G C56A C73G U106C
6. G47C A91C G113C
7. C13U C56U A111G

Ans.
1. -6.18
2. 1.04
3. -5.74
4. -5.39
5. -4.85
6. -2.97
7. 0.163

The following variants each have a reported value; give each one's polymerase ribozyme fitness (log ratio).
1. G48U C73G A95G
2. C12G A46C C101U U132C
3. G61U U81G U129A

Ans.
[-1.55, -1.45, -4.47]

I would be grateful if you could provide polymerase ribozyme fitness (log ratio) for each of the following entries.
1. A24G G52A
2. A18U G113U C114U C124A U130C
3. C56U C70U U78G U125G
4. C101G G127U

Ans.
-1.78
-2.93
-1.77
-2.83

Data origin: the RNAGym collection of RNA variant scans (doi:10.1073/pnas.2313332121)
